# testTarget: FUBP1 (UniProt Q96AE4)
# Sequence: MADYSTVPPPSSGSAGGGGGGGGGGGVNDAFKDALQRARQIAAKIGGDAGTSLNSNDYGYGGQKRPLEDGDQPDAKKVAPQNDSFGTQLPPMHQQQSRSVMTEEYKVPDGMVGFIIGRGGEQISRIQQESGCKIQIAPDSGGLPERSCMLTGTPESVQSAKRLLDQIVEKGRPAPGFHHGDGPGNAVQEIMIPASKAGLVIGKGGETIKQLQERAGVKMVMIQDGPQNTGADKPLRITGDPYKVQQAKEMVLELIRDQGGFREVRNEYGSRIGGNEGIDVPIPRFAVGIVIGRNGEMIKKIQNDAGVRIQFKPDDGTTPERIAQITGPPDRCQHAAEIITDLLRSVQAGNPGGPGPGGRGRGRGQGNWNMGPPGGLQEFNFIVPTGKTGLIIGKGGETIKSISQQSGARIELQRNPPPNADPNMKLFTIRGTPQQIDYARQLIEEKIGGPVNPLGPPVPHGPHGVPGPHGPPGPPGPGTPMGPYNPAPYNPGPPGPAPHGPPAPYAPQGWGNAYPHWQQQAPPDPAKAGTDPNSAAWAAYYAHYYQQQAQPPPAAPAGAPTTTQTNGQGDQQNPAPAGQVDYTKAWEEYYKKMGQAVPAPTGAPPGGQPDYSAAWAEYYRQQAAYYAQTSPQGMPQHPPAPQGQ
# assayComment: EC50 of free RNA motif oligo competing protein binding to immobilised probe
endpoint: pEC50
Friendly reminder that pEC50 comes from taking -log10 of the concentration in mol/L.

For the sequence "AAUAAA" , what pEC50 is on record?
5.24

* * *

The entries below are paired with their reported EC50.
# testTarget: RBM4 (UniProt Q9BWF3)
# Sequence: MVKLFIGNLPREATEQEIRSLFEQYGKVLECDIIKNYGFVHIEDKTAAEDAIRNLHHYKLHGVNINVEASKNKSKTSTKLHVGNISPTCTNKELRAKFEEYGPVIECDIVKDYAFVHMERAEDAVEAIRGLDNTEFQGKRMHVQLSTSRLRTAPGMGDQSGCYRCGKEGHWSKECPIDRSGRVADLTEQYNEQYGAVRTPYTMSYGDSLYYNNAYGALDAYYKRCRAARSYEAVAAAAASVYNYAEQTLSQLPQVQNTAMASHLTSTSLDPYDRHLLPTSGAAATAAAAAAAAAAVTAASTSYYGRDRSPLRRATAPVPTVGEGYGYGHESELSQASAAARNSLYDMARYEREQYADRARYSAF
# assayComment: EC50 of free RNA motif oligo competing protein binding to immobilised probe
# value in nM; strip the unit string

Reported EC50 for "AAUAAA" : what is it?
4160

New cases:
Data request, read-out EC50, for "CUGUCCU"
371

* * *

# testTarget: SF3B2 (UniProt Q13435)
# Sequence: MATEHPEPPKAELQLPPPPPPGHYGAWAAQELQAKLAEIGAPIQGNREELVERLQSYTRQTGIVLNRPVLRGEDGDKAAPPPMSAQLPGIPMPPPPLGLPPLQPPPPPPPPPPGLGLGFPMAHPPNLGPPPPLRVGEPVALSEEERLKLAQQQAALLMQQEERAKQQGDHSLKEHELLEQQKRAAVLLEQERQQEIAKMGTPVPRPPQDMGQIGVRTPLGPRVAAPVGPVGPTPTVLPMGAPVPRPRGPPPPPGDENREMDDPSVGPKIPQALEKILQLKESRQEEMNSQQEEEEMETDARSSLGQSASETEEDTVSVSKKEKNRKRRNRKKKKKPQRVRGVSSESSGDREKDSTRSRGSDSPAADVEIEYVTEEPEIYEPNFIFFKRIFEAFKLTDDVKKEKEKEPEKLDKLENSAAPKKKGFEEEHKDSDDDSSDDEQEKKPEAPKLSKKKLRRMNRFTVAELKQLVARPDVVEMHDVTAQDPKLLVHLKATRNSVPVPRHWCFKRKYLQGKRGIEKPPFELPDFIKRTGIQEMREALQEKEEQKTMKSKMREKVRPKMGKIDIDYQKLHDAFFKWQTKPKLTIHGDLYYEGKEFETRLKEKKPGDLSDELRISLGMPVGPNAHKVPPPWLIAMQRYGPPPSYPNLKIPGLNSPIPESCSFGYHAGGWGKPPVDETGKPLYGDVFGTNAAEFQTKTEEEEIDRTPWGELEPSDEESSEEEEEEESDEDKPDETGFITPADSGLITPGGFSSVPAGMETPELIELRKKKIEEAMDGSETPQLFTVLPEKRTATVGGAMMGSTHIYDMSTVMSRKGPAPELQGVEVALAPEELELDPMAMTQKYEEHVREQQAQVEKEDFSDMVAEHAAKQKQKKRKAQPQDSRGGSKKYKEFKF
# assayComment: EC50 of free RNA motif oligo competing protein binding to immobilised probe
endpoint: pEC50
As a rule, pEC50 stands for the negative log10 of the concentration, concentration in M.

Which pEC50 is reported for this sequence? "AAUAAA"
5.93

* * *

Parameter: Kd. Scope: all listed entries.
# testTarget: DHX15 (UniProt O43143)
# Sequence (O43143 whole entry): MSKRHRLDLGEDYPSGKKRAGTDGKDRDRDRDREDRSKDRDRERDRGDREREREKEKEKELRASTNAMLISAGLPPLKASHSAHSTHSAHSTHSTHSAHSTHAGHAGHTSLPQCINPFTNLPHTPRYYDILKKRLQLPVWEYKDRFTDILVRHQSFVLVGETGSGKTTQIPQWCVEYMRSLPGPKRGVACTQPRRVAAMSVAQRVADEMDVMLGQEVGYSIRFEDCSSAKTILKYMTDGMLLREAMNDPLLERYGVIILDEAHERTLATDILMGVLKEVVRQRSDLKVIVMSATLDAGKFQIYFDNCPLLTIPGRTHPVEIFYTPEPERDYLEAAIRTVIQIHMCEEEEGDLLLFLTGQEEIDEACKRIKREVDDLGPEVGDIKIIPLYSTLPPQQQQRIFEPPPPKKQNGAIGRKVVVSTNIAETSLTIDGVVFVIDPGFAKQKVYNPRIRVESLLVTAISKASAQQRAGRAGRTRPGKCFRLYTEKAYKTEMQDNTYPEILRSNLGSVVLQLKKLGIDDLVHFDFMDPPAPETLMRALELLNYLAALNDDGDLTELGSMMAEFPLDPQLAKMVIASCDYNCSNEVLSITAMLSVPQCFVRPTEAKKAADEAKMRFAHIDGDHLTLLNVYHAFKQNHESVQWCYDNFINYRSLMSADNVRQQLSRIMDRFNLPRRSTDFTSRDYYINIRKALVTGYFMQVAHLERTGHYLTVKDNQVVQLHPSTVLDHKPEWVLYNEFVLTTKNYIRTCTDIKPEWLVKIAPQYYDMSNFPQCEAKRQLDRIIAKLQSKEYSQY
# assayComment: Kd (EC50 corrected by depletion factor)
Just the number in nM, nothing appended.

# count of solved cases: 2
Tell me the measured Kd of "UAUUUAU" , please.
157

I would be grateful if you could share the reported Kd for "AAUAAA" .
446

From here, focus on the item given below.
Consider the sequence "CUGUCCU" and give its measured Kd.
358

* * *

# testTarget: SRSF6 (UniProt Q13247)
# Sequence (Q13247 whole entry, looked up): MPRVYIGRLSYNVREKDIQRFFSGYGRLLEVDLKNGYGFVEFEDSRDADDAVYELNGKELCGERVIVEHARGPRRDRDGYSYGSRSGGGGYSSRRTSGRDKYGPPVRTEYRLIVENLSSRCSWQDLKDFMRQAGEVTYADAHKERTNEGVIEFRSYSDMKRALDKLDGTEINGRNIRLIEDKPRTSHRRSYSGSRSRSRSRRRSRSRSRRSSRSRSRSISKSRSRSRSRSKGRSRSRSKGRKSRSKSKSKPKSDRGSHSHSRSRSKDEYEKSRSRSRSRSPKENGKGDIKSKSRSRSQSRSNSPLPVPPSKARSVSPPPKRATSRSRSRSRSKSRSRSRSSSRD
# assayComment: Kd (EC50 corrected by depletion factor)
endpoint: Kd (nM)
Provide only the numeric value, understood in nM.

Would you kindly share the measured Kd for "CUGUCCU" ?
287

* * *

# testTarget: MRPL37 (UniProt Q9BZE1)
# assayComment: Kd (EC50 corrected by depletion factor)
endpoint: pKd
In simple prose, pKd is minus the logarithm base ten of a concentration in moles per litre.

Entry "CUGUCCU" has what pKd?
7.12

* * *

Each entry below lists one item and its recorded EC50 value.
# testTarget: XRN1 (UniProt Q8IZH2)
# Sequence (Q8IZH2 whole entry): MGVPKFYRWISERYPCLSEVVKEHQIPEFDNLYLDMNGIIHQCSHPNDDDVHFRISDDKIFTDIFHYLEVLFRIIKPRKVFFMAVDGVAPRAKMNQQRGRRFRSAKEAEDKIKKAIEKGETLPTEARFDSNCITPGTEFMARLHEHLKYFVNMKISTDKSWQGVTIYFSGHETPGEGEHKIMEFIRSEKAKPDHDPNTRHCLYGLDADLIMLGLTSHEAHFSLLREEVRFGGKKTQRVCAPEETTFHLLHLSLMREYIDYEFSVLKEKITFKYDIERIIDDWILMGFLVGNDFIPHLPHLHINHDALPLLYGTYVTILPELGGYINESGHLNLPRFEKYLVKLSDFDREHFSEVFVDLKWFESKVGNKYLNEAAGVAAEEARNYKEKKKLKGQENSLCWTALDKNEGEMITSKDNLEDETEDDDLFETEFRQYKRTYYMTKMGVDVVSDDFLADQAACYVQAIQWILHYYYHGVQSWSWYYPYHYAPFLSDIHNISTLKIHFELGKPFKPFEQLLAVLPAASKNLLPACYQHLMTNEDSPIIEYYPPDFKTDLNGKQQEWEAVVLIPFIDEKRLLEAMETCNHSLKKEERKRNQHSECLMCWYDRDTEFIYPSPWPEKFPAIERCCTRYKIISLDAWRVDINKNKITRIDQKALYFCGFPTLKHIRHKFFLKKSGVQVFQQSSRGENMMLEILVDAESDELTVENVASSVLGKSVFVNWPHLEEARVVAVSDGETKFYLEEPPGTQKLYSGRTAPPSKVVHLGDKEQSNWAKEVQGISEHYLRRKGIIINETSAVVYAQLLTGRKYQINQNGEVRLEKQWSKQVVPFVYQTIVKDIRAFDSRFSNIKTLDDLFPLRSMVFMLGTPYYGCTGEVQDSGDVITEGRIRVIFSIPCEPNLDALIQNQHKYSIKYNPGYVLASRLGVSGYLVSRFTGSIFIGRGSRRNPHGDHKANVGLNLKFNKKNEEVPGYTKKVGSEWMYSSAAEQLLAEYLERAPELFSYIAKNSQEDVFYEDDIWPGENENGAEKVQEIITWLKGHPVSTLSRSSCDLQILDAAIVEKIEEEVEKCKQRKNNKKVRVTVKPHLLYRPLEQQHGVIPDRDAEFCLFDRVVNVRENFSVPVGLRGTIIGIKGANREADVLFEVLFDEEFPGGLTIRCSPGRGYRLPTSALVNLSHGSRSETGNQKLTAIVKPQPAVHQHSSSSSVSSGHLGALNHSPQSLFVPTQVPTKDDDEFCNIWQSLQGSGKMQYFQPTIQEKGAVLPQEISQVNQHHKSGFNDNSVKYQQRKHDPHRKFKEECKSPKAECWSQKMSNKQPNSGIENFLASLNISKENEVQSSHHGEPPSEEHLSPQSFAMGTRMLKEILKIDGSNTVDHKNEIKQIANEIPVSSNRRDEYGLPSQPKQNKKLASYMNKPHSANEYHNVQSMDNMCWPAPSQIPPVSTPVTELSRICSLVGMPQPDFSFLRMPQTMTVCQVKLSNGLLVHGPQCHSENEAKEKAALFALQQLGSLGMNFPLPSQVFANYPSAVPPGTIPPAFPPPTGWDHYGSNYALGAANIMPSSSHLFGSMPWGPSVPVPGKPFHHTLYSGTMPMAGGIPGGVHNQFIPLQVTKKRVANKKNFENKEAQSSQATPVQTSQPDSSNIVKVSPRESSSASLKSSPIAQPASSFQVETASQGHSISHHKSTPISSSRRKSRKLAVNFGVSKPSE
# assayComment: EC50 of free RNA motif oligo competing protein binding to immobilised probe
State the answer as a number, implicitly in nM.

I'd like to know its EC50. The sequence in question is "UAUUUAU"
196

New cases:
I would be grateful if you could share the reported EC50 for "AAUAAA" .
440

* * *

# testTarget: AGO1 (UniProt Q9UL18)
# assayComment: Kd (EC50 corrected by depletion factor)
endpoint: Kd (µM)
// return numeric value only (unit: µM, not printed)

Sample "AAUAAA" — what was its Kd?
0.0787

* * *

# testTarget: TUBB2A (UniProt Q13885)
# Sequence (Q13885 whole entry): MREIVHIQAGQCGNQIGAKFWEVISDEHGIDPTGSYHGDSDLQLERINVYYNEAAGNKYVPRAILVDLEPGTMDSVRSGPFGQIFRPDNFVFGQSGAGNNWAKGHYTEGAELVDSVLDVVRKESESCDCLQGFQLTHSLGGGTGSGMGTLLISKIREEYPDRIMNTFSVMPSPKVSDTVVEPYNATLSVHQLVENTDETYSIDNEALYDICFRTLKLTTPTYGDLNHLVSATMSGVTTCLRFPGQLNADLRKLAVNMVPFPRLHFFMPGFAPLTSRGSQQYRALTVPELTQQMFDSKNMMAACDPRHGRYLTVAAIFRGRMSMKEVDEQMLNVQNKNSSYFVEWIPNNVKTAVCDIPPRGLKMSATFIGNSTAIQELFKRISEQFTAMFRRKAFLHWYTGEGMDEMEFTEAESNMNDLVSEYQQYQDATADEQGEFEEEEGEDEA
# assayComment: Kd (EC50 corrected by depletion factor)
endpoint: Kd (nM)
Just the number please, in nM, no unit attached.

Notebook: pull reported Kd for TUBB2A (UniProt Q13885), entry "AAUAAA"
1030

* * *

# testTarget: CHERP (UniProt Q8IWX8)
# Sequence: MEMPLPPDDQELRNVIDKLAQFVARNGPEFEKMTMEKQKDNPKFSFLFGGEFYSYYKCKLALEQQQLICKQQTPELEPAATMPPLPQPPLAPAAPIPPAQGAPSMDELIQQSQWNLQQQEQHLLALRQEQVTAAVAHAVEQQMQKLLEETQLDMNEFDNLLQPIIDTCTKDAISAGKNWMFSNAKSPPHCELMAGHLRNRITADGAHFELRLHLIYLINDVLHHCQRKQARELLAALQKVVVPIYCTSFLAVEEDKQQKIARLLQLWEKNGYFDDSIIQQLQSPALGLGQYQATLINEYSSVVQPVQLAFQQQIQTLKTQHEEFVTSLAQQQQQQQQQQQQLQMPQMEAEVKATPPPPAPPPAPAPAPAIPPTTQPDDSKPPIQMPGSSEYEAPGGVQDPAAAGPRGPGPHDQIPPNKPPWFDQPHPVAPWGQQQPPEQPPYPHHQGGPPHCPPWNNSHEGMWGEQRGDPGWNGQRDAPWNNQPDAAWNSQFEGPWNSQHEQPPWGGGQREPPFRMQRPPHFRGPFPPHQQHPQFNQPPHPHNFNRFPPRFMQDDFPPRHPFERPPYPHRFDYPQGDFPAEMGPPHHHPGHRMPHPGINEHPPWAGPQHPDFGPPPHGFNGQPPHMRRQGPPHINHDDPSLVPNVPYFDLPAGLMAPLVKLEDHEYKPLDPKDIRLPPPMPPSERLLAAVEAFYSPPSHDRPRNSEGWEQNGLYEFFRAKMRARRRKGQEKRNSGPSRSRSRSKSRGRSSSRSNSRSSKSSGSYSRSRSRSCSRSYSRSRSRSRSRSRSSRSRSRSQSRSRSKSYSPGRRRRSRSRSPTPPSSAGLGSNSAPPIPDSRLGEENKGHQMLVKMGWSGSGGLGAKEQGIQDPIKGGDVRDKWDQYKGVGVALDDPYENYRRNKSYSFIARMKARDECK
# assayComment: Kd (EC50 corrected by depletion factor)
endpoint: Kd

Can you share its Kd? I mean this sequence: "AAUAAA"
255 nM

Switching to the query record.
What value of measured Kd is listed for "UAUUUAU" ?
19.4 nM
